Target: T1, Metnase transposase domain WT (UniProt Q53H47 342-684)
T1 sequence: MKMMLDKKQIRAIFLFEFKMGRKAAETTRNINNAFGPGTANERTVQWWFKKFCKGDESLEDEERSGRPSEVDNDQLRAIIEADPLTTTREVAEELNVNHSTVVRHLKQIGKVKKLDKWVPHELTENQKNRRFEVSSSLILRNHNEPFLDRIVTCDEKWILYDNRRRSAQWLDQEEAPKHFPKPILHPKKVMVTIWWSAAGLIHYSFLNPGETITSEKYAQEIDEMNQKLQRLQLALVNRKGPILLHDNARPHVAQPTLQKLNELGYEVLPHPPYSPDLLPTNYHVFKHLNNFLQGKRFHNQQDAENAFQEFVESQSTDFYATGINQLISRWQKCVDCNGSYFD
Test: fluorescence polarization; FP: 50 mM HEPES pH 7.0, 150 mM NaCl, 10 nM probe, temperature not stated; EMSA: 50 mM HEPES-KOH pH 7.8, 50 mM NaCl, 0.2 ug poly(dI:dC), 0.2 ug/ul BSA, room temperature 15 min
Settings: protein: recombinant; tags: His6-SUMO cleaved by Ulp1; chain copies: 2; label: 5' rhodamine on strand 1; 5' overhang 6 nt on strand 2
measurement_label: Kd (nM)

INSERT INTO measurements (binder, quantitative_result) VALUES
  ('25/31-mer TIR partial duplex (dsDNA, 5'' C6-amino linker on strand 1) DNA 1: AACCGCAATTACTTTTGCACCAACC DNA 2: TCAGTAGGTTGGTGCAAAAGTAATTGCGGTT', 11.9);
